As shown below, each of these binders has a reported FcγR stimulation (TNF-α, pg/mL) value.
- target.of.assay: human LILRB4 (human, UniProt Q8NHJ6 22-448)
- assay.info: cell-based or functional assay
readout.kind: FcγR stimulation (TNF-α, pg/mL)

binder: ch25-E7-A10-H6 (antibody, V domains shown) VH: EVQLVESGGGLVQPGGSRKLSCAASGFTFSTFGMHWVRQAPEKGLEWVAYISSGSSTIYYADTVKGRFTISRDNPKNTLFLQMTSLRSEDTAMYYCARSTGTGAMDYWGQGTSVTVSS VL: DIQMTQTTSSLSASLGDRVTISCRASQDISKYLNWYQQKPDGTVKLLIYYTSRLHSGVPSRFSGSGSGTDYSLTISNLEQEDIATYFCQQGNTLPWTFGGGTKLEIK
readout.kind: FcγR stimulation (TNF-α, pg/mL)
reported: 390 pg/mL
--
binder: ch42-C8-A12-F3-D11 (antibody, V domains shown) VH: EVHLVESGGDLVKPGGSLKLSCAASGFTFSSHGMSWVRQTPDKRLEWVATISSGGIYTYHPDSVKGRFSISRDNAKKTLYLQMSSLKSEDTGIYYCTRGQVGNWYFDVWGAGTTVTVSS VL: DIVITQSPAIMSASPGEKVTINCSASSSVSYMHWFQQTPGTSPKLWIYSTSNLASGVPARFSGSGSGTFYSLTISRMEAEDAATYYCQQRSSYPLTFGAGTKLELK
readout.kind: FcγR stimulation (TNF-α, pg/mL)
reported: 308 pg/mL
--
binder: ch27-G5-E9-B8 (antibody, V domains shown) VH: EVQLVESGGGLVQPGGSRKLSCAASGFTFSSFGMHWVRQAPEKGLEWVAYISSGSSTIYYADTVKGRFTISRDNPKNTLFLQMTSLRSEDTAMYYCARSTGTGAMDYWGQGTSVTVSS VL: DIQMTQTTSSLSASLGDSVTFSCRASQDISNYLNWYQQKPDGTVKLLISYTSRLHSGVPSRFSGSGSGTDYSLTISNLEQEDIATYFCQQGNALPWTFGGGTKLEIK
readout.kind: FcγR stimulation (TNF-α, pg/mL)
reported: 394 pg/mL
